# System: PfHDP1 homeodomain (GST-tagged)
# testSummary: gcPBM binding intensity (ln(normalized median fluorescence intensity)); higher = stronger DNA binding
Whole data set: some 25,000 sequences, median “ln(normalized median fluorescence intensity)” near 6.7, cut for the highest 2% near 10. The sample holds the highest values, similar sequences and a random draw of the others, so the mix is not that of the screen.
outcomeMeasure: gcPBM binding intensity (ln)
Answer with the value's number alone.

AAAATTAACGAGTGCACACATATTTAGATAAAATAC [CACACA_site2936] = 11.3
TTGTTGTGTATTATCGTGCACATAATATAAAAGATT = 10.5
GAGTGAAATATGCAAACACACACGAGAAAAATGTAT [CACACA_site3196] = 7.15
AAAATTAAAAATAACACACACATATATATATTTATA [CACACA_site2776] = 6.54

Name the reported gcPBM binding intensity (ln) value associated with the sequence AATATTTATGGGTGCACACAAACATACAGATATATA [CACACA_site5810]
10.3

* * *

# System: PfHDP1 homeodomain (GST-tagged)
# testSummary: gcPBM binding intensity (ln(normalized median fluorescence intensity)); higher = stronger DNA binding
The full ranking holds about 25,000 sequences; the median of “ln(normalized median fluorescence intensity)” is about 6.7, and the highest 2% start at about 10. Many of the other results were omitted from the sample, so the highest values are more common in it than they were.
outcomeMeasure: gcPBM binding intensity (ln)
Answer with the value's number alone.

Here's what some known entries look like.
ATTTTTTTTTTTATGTGTACATATATTTTTTTAATT [XGTACX_site7921] = 7.04
TTTTTTTCTCTCTCTACACACAAGGTTTAATTTAAA [CACACA_site1690] = 6.81
TAATTATGCGGACACACACACACACCCAACTAAAAA [CACACA_site5427] = 6.81

Name the reported gcPBM binding intensity (ln) value associated with the sequence ATTTTATTTAAATACACACACATATATATATTATAT [CACACA_site4607]
7.14

Input ATTTGTATATACATATGTACACATGTAGGCTCATAA [XGTACX_site1709]
6.92

Input GATAATAATAAACAACCACACACAAAAAAACAAAAA [CACACA_site9074]
7.01

* * *

# Test system: PfHDP1 homeodomain (GST-tagged)
# testSummary: gcPBM binding intensity (ln(normalized median fluorescence intensity)); higher = stronger DNA binding
In all, about 25,000 sequences were measured (“ln(normalized median fluorescence intensity)”: median about 6.7, highest 2% from about 10 on). Only a selection was taken, and the highest values are over-represented in it overall.
outcomeMeasure: gcPBM binding intensity (ln)
Answer with the value's number alone.

ACATATGAAAAATATGCATGCAAATATTATTTAACA [TGCATGCA_site802] = 7.03
ATAATATAAATACAAACACACAATTGTGTCCACATT [CACACA_site6920] = 6.79
ATTTAATACAAATACACACACAAATATGTACCTATA [CACACA_site7718] = 7.02
TTTCTTTTTAAATATATACACACCGTGGGTACATAT [CACACA_site9102] = 6.81

We next turn to a different sequence, shown below.
Name the reported gcPBM binding intensity (ln) value associated with the sequence ATATTGATACATCCAATACACACTACATATAATGAT [CACACA_site1874]
6.82
